The next entries give measured IC50 for Pim 2 (Homo sapiens, UniProt Q9P1W9).
Give the value, in units of nM, as a plain number.

Known IC50 results, listed for orientation:
C[C@@H]1C[C@H](N)C[C@H](c2ccncc2NC(=O)c2ccc(F)c(-c3c(F)cc(C(C)(C)C(=O)O)cc3F)n2)C1 4.75
C[C@H]1CN(c2ccncc2NC(=O)c2ccc(F)c(-c3c(F)cc(OC4CCOCC4)cc3F)n2)C[C@@H](N)[C@@H]1O 0.58
COCCOc1cc(F)c(-c2nc(C(=O)Nc3cnccc3[C@@H]3C[C@H](C)C[C@H](N)C3)c(N)cc2F)c(F)c1 1.08
C[C@@H]1C[C@H](N)C[C@H](c2ccncc2NC(=O)c2ccc(F)c(-c3c(F)cc(C4COC4)cc3F)n2)C1 1.6
C[C@H]1C[C@@H](c2ccncc2NC(=O)c2ccc(F)c(-c3c(F)cc(OC4COC4)cc3F)n2)C[C@@H](N)[C@@H]1O 6.33

Data point: `C[C@@H]1C[C@H](N)C[C@H](c2ccncc2NC(=O)c2ccc(F)c(-c3c(F)cc(CCO)cc3F)n2)C1` ; IC50 = 1.52

Sample `C[C@H]1C[C@@H](c2ccncc2NC(=O)c2ccc(F)c(-c3c(F)cc(OCCO)cc3F)n2)C[C@@H](N)[C@@H]1O` ; IC50 observed: 4.76

###

Read-out record for Pim 1 (Homo sapiens): IC50
The figure you give is taken to be in nM; do not add the unit.

Completed entries (count: 5):
C[C@@H]1C[C@H](N)C[C@H](c2ccncc2NC(=O)c2ccc(F)c(-c3c(F)cc(OC4COC4)cc3F)n2)C1 0.08
C[C@@H]1C[C@H](N)C[C@H](c2ccncc2NC(=O)c2ccc(F)c(-c3c(F)cc(OCC(C)(C)O)cc3F)n2)C1 0.02
C[C@H]1C[C@@H](c2ccncc2NC(=O)c2ccc(F)c(-c3c(F)cc(OCC(C)(C)O)cc3F)n2)C[C@@H](N)[C@@H]1O 0.03
C[C@@H]1C[C@H](N)C[C@H](c2ccncc2NC(=O)c2nc(-c3c(F)cc(OC4CCOCC4)cc3F)c(F)cc2N)C1 0.01
C[C@@H]1C[C@H](N)C[C@H](c2ccncc2NC(=O)c2ccc(F)c(-c3c(F)cc(C4=CCCC4)cc3F)n2)C1 0.02

For `C[C@@H]1C[C@H](N)C[C@H](c2ccncc2NC(=O)c2ccc(F)c(-c3c(F)cc(C(C)(C)C#N)cc3F)n2)C1` on Pim 1 (Homo sapiens), measured IC50 was 0.02

The reported Pim 1 (Homo sapiens) IC50 of `C[C@@H]1C[C@H](N)C[C@H](c2ccncc2NC(=O)c2cccc(-c3c(F)cc(C4CCOCC4)cc3F)n2)C1` is 0.02

Form field, IC50 with Pim 1 (Homo sapiens), item `C[C@H]1C[C@@H](c2ccncc2NC(=O)c2nc(-c3c(F)cc(C4COC4)cc3F)c(F)cc2N)C[C@@H](N)[C@@H]1O` : 0.03

###

// IC50 collected for Pim 3 (Homo sapiens)
Please respond with the number in nM and leave the unit unwritten.

Use these answered entries as a reference point.
C[C@@H]1C[C@H](N)C[C@H](c2ccncc2NC(=O)c2cccc(-c3c(F)cc(C4CCOCC4)cc3F)n2)C1 1.06
CCOCc1cc(F)c(-c2nc(C(=O)Nc3cnccc3[C@H]3C[C@@H](N)[C@@H](O)[C@@H](C)C3)ccc2F)c(F)c1 4.89
C[C@@H]1C[C@H](N)C[C@H](c2ccncc2NC(=O)c2cccc(-c3c(F)cc(C4(F)CCOCC4)cc3F)n2)C1 2.9

IC50 reported for this molecule `C[C@H]1CN(c2ccncc2NC(=O)c2ccc(F)c(-c3c(F)cc([S@@+](C)[O-])cc3F)n2)C[C@@H](N)[C@@H]1O` : 2.21

The measured IC50 associated with `COC1(c2cc(F)c(-c3nc(C(=O)Nc4cnccc4N4C[C@@H](N)[C@H](O)[C@@H](C)C4)ccc3F)c(F)c2)COC1` reads 0.69

GET /value?item= `C[C@@H]1C[C@H](N)C[C@H](c2ccncc2NC(=O)c2ccc(F)c(-c3c(F)cc(C4(O)CCCC4)cc3F)n2)C1` &field=IC50 returns 0.17
